# Measured On: hERG (Homo sapiens (Human))
# Sequence (Q12809 whole entry): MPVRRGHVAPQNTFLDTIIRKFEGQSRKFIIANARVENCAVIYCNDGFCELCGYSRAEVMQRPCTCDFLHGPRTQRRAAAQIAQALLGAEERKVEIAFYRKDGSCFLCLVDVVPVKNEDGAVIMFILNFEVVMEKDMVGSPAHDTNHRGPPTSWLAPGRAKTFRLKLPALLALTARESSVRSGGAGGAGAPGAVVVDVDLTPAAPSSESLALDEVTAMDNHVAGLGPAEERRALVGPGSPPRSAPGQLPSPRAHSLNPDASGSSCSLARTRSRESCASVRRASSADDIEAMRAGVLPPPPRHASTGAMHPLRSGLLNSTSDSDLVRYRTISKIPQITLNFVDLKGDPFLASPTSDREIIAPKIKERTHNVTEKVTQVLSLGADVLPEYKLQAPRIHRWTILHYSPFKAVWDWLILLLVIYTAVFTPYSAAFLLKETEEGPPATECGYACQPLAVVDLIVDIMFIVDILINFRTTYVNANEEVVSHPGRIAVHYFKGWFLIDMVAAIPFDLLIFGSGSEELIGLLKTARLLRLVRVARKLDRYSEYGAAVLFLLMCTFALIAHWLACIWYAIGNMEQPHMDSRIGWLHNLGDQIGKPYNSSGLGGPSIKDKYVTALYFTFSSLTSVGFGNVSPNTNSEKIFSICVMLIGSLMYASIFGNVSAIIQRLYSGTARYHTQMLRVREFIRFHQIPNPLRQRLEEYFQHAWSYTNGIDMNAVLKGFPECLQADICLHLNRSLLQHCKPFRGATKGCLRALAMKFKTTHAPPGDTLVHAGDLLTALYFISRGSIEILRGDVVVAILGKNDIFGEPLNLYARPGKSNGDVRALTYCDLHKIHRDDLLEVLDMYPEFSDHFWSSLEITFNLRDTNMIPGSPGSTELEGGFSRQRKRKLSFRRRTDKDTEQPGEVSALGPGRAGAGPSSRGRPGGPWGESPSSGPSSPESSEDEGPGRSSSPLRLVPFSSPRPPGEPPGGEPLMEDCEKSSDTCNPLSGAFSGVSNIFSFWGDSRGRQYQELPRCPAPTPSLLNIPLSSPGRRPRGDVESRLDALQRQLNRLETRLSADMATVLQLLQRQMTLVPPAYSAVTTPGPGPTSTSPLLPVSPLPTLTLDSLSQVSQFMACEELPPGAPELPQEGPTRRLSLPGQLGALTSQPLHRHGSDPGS
# Measurement Protocol: in vitro
# Assay Conditions: CHO cells stably expressing hERG
Outcome Measure: selectivity ratio

>>> measured_value("N#Cc1cnc(Nc2cc(-c3c(OCC4(CN)CC4)cnc4c3OCC4)[nH]n2)cn1")
"≥ 800"

Now for another entry.
[ask] Identify the measured selectivity ratio of N#Cc1cnc(Nc2cc(-c3c(OCC4(F)CNC4)cnc4cccnc34)[nH]n2)cn1 for hERG (Homo sapiens (Human)).
[reply] ≥ 800

----------
# Tested on: ES-2 cells
# Measurement Protocol: Cell growth suppression experiment (ES-2)
# Assay type: cell-based
# Assay Conditions: Homo sapiens, 48 h, cultured 2 days, CellTiter-Glo 3D
1 (yes) if IC50 is below 9 nM. 0 (no) if not; exact matches included in 0 (no).

>>> group_label("N#Cc1cnc(Nc2cc(-c3c(OCC4(CN)CC(F)(F)C4)cnc4cccnc34)[nH]n2)cn1")
"1 (yes)"
>>> group_label("N#Cc1cnc(Nc2cc(-c3c(O[C@H]4C[C@H](N)[C@H]5C[C@H]54)cnc4c3OCC4)[nH]n2)cn1")
"0 (no)"

Could you now look at the following compound, please?
[ask] Consider the compound N#Cc1cnc(Nc2cc(-c3c(OC[C@H]4CCNC4)cnc4c3OCC4)[nH]n2)cn1 . Is its IC50 strictly less than 9 nM?
[reply] 0 (no)
